Let's look at some binders and their measured MFI.
Target: T1, human CD3 (human, UniProt P07766 23-207; P09693 23-182; P04234 22-171)
T1 construct: whole, on cells; also called CD3 on Jurkat T cells; CD3 on primary human T cells
Experiment: flow cytometry, hybridoma supernatant on CD3+ Jurkat cells
Numbers only here, please. The scale is MFI.

F332-5D4 (antibody, mouse IgG2b, V domains shown, also called F332-5D4-2; F332-5D4 (5F8)) VH: QVQLQQPGAELGKPGTSVKLSCKASGYTFTSYWMHWVKQRPGQGLEWIGNINPNGGDSNYNEKFKSKATLTVDMSSSTAYMQLSTLTSEDSAVYYCTRDISGQYYFDFWGQGTSLTVFS VL: DILMSQSPSSLAVSAGEQVTMSCKSSQSLLNSRTRKNYLAWYQQKPGQSPKLLIFWASTRKSGVPDRFTGSGSGTYFTLTINSVQTEDLAVYYCTQSYSLRTFGGGTKLEIK	326

Consider the record given below.
Look at this binder and give its reported MFI. F332-3E9 (antibody, mouse IgG2a, V domains shown, also called F332-3E9-2; F332-3E9 (12G4)) VH: QVQLQQPGAELGKPGTSVKLSCKASGYTFTSYWIHWLKQRPGQGLEWIGNINPNGGSINCNEKFTTKATLTIDKSSSTAYMQLSTLTSEDFAVYYCTRDTSGQYYFDYWGQGTTLTVSS VL: DIMMSQSPSSLAVSAGEKVTMSCKSSQSLLNSRTRKNYLAWYQQKPGQSPKLLIYWASTRESGVPDRFTGSGSGTDFTLTISSVQAEDLAVYYCTQSYHLRTFGGGTKLEIK
297
